Provenance of the data: PubChem BioAssay

# measurement-target: Left-right determination factor 2 (Homo sapiens) (UniProt O00292)
# Sequence (O00292 whole entry, looked up): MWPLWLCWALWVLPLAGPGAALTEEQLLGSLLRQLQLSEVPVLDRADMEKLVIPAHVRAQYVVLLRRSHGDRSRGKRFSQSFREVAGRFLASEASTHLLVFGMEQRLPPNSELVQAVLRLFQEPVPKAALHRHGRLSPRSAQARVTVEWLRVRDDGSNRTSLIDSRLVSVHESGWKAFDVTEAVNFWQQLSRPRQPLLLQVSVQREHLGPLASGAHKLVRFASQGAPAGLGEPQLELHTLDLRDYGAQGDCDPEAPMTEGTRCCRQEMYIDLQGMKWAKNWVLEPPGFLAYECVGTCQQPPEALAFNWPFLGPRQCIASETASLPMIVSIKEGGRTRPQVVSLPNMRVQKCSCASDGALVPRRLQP
# assay-notes: small molecules binding LEFTY2 protein – biochemical, small-molecule microarray, 635 nm fluorescence scan, primary screen (AID 1110)
# conditions: higher = more signal
// map composite z-score onto a label; ranges 1 = under -0.2, 2 = from -0.2 up to 0.3, 3 = 0.3 and over

# count of solved cases: 3
molecule: COC(=O)C(CC#Cc1ccc2c(c1)[C@]1(C(=O)N2)[C@H](C(=O)N2CCc3cc(OC)c(OC)cc3C2)[C@H]2C(=O)O[C@H](c3ccccc3)[C@H](c3ccccc3)N2[C@@H]1c1ccccc1OCCO)C(=O)OC
group-label: 3
--
molecule: COc1ccc([Si](C)(C)[C@H]2[C@H](CCO)O[C@@]3(C(=O)N(Cc4cccc(N5C(=O)c6ccccc6Oc6ccccc65)c4)c4ccccc43)[C@@H]2C)cc1
group-label: 1
--
molecule: CCOC(=O)C1=CCC(c2cc3ccccc3[nH]2)N(CCN2CC(C(=O)OCC)=CCC2c2cc3ccccc3[nH]2)C1 (centres undefined)
group-label: 2

Please look at the following molecule next.
Band assignment needed for CC(C)C[C@@H]1NC(=O)[C@@]23C(=O)N[C@@H](Cc4ccccc4)C2[C@H](C)[C@@]2(C)O[C@H]2C3/C=C/C/C=C\CNC(=O)CNC1=O (some centres undefined) please.
2

----------
# assay-notes: plasmodial surface anion channel blockers, osmotic lysis – cell-based, P. falciparum Indochina, OD700, 2 h, primary screen (AID 1155);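 also: lysis reports solute entry through the parasite surface anion channel PSAC; channel blockers reduce lysis of infected cells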
# conditions: P. falciparum Indochina infected erythrocytes, higher = more signal, called active from +8 up or from −8 down
recorded-endpoint: z-score
No unit in the answer, only the number.

Some solved entries appear below for comparison.
molecule: C[C@]1(C(=O)O)c2ccccc2C(=O)N(Cc2cc(F)cc(C(F)(F)F)c2)[C@H]1c1ccc(CO)cc1
recorded-endpoint: z-score
observed-result: -0.0481

molecule: CCCCN1CC=CC23O[C@@H]4/C=C\CCCOC(=O)C4[C@H]2C(=O)N(C(CO)C(C)C)[C@@H]3C1=O (some centres not stated)
recorded-endpoint: z-score
observed-result: 0.701

molecule: O=C1N(Cc2ccccc2)c2ccccc2C[C@@]12COC(c1ccc(OCCCO)cc1)=N2
recorded-endpoint: z-score
observed-result: 10.1

molecule: O=C1OCCC=C[C@H]2OC34C=CCN(c5ccc6ccccc6c5)C(=O)[C@H]3N(CCO)C(=O)[C@@H]4C12 (some centres not stated)
recorded-endpoint: z-score
observed-result: 0.791

molecule: CC1CC/C=C\[C@H]2OC34C=CCN(CCN5CCOCC5)C(=O)[C@H]3N(CCCO)C(=O)[C@@H]4C2C(=O)O1 (some centres not stated)
recorded-endpoint: z-score
observed-result: 0.354

Requested read-out: z-score. Entry: CCOC(=O)c1cn(C[C@H](Cc2ccccc2)NC(=O)N[C@H](CO)CCc2oc(C(C)=O)c(C(=O)OC)c2C(=O)OC)nn1
-1.06

Requested read-out: z-score. Entry: COC(=O)C(CC#Cc1ccc2c(c1)[C@]1(C(=O)N2)[C@H](C(=O)N2CCc3cc(OC)c(OC)cc3C2)[C@H]2C(=O)O[C@H](c3ccccc3)[C@H](c3ccccc3)N2[C@@H]1c1ccccc1OCCO)C(=O)OC
1.76

----------
# measurement-target: NADPH oxidase 4 (Homo sapiens) (UniProt Q9NPH5)
# Sequence (Q9NPH5 whole entry, looked up): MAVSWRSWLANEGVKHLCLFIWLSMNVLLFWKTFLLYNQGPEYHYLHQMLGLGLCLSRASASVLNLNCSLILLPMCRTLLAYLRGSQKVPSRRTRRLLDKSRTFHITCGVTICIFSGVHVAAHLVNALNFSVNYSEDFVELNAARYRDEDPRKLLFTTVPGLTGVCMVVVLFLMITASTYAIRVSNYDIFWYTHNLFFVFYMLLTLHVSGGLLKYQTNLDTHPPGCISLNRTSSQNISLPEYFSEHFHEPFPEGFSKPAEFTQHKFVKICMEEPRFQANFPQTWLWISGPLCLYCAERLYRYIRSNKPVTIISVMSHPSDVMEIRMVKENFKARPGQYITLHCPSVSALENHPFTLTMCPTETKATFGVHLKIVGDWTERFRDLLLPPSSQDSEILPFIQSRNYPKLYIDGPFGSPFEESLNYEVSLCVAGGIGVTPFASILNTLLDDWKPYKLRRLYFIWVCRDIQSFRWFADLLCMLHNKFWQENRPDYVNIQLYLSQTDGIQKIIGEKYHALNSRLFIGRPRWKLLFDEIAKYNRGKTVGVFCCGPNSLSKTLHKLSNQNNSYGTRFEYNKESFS
# assay-notes: compounds shifting NOX4 Amplex Red fluorescence – cell-based, HEK293-NOX4, tetracycline-induced, NOX inhibitor project, primary screen (AID 1160)
# conditions: HEK293-NOX4, Amplex Red H2O2 fluorescence, 45 min; higher = more signal, called active from +8 up or from −8 down
# z-score listing for each entry below
No unit in the answer, only the number.

Some solved entries appear below for comparison.
molecule: CCCC=C(CCC)[C@@H](NC(=O)OCC(C)C)c1ccc(C(=O)OC)cc1
z-score: 1.89

molecule: COc1ccc(C(O)C2C=CC3C(=O)NC(=O)C3N2Nc2ccc(Cl)cc2Cl)c2ccccc12 (stereo not drawn)
z-score: -5.63

molecule: CCOC(=O)C1=C[C@@H](C(C)(C)C)N(S(=O)(=O)c2ccc(C)cc2)[C@H]1c1ccc(C#N)cc1
z-score: -0.508

molecule: CCOC(=O)C[C@H]1[C@H](OC(=O)c2ccccc2-c2ccccc2)[C@@H](NC(=O)C2CCCCC2)c2cc(OCCCO)ccc2N1C(=O)c1ccc2ccccc2n1
z-score: 1.23

molecule: C=C(CCCC)C(=O)CC[C@@H](OC(=O)c1ccccc1-c1ccccc1C(=O)O)c1ccccc1OCCO
z-score: 0.0357

Requested read-out: z-score. Entry: CC(C)C(=C=CC[C@H](O)c1ccccc1OCCO)C[C@H](O)c1cc(Cl)cc(Cl)c1O
-1.67

Requested read-out: z-score. Entry: CN(C)CCCNC(=O)[C@@]1(C)c2ccccc2C(=O)N(Cc2ccc(OC(F)(F)F)cc2)[C@H]1c1ccc(CO)cc1
-0.303

Requested read-out: z-score. Entry: C=CCC(OC(C)=O)[C@@H]1[C@@H](N(Cc2cc3ccccc3o2)C(=O)Cc2ccc(OC)cc2)c2cc(OCCCO)ccc2N1C(=O)c1ccc2ccccc2n1 (stereo partly drawn)
-1.14
